Reference source for all entries: patent US20210040074A1

# System: D5 (Homo sapiens, UniProt P21918)
# Sequence (P21918 whole entry): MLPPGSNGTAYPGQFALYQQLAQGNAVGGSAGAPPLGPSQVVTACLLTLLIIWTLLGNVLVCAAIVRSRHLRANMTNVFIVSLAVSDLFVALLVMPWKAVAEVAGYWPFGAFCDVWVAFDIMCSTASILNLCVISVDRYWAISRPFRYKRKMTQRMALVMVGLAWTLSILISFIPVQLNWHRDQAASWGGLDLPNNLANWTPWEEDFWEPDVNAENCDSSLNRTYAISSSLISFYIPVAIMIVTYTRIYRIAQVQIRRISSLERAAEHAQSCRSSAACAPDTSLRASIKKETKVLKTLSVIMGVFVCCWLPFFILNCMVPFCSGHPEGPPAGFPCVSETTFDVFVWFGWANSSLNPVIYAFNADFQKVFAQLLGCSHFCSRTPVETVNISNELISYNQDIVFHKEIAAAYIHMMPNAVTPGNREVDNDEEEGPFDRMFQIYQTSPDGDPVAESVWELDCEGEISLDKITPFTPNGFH
# Measurement description: D5R β-arrestin recruitment assay (DiscoverX PathHunter, CHO cells)
# Type: cell-based
# Parameters: host or cells: CHO-K1
# Test conditions: fold change of dopamine EC50, 50 μM compound
Would you mind telling me the reported D5 Beta-Arrestin: DA + 50 μM PAM, Fold Change EC50 of each entry?
One number for each entry.

Compound	Number
Cn1c2ccccc2c(=O)c2c(=O)n(-c3cccc(Cl)c3)c(CC3CCCCC3)nc21 [Compound 18]	1.35
Cc1ccc(-n2c(C3CCCCC3)nc3c(c(=O)c4ccccc4n3C)c2=O)cc1	2.64
Cn1c2ccccc2c(=O)c2c(=O)n(-c3cccc(Cl)c3)c(CC3CCCCC3)nc21 [Compound 22]	1.40
COc1ccc(-n2c(C3CCCCC3)nc3c(c(=O)c4ccccc4n3C)c2=O)cc1Cl	0.77
Cn1c2ccccc2c(=O)c2c(=O)n(-c3ccccc3)c(C3CC3)nc21	2.58

// for each compound below, give its D5 Beta-Arrestin: DA + 50 μM PAM, Fold Change EC50
1. COc1ccc(-n2c(CC(C)C)nc3c(c(=O)c4ccccc4n3C)c2=O)cc1
2. CC(C)(C)C1CCc2c(sc(NC(=O)c3cccnc3)c2C(N)=O)C1 (centres unmarked)
3. NC(=O)c1c(NC(=O)c2cccnc2)sc2c1CCC(c1ccccc1)C2 (centres unmarked)
4. COc1ccc(-n2c(CC(C)C)nc3c(c(=O)c4ccccc4n3C)c2=O)cc1Cl
5. COc1ccc(-n2c(C3CCCC3)nc3c(c(=O)c4ccccc4n3C)c2=O)cc1
6. Cn1c2ccccc2c(=O)c2c(=O)n(-c3cccc(Cl)c3)c(C3CCCC3)nc21
7. Cn1c2ccccc2c(=O)c2c(=O)n(-c3ccccc3)c(C3CCCC3)nc21

Data returned:
1. 2.93
2. 0.78
3. 0.48
4. 1.53
5. 4.10
6. 0.91
7. 4.16

// for each compound below, give its D5 Beta-Arrestin: DA + 50 μM PAM, Fold Change EC50
1. CN1CCc2c(sc(NC(=O)c3ccncc3)c2C#N)C1
2. COc1ccc(-n2c(C3CCCC3)nc3c(c(=O)c4ccccc4n3C)c2=O)cc1Cl
3. CC1CCc2c(sc(NC(=O)c3ccccn3)c2C(N)=O)C1 (centres unmarked)
4. CC1CCc2c(sc(NC(=O)c3cccnc3)c2C(N)=O)C1 (centres unmarked)

Data returned:
1.28
1.51
0.47
1.06

// for each compound below, give its D5 Beta-Arrestin: DA + 50 μM PAM, Fold Change EC50
1. COc1ccc(-n2c(CC3CCCCC3)nc3c(c(=O)c4ccccc4n3C)c2=O)cc1
2. COc1ccc(-n2c(C3CCCCC3)nc3c(c(=O)c4ccccc4n3C)c2=O)cc1
3. CC1CCc2c(sc(NC(=O)c3ccncc3)c2C(N)=O)C1 (centres unmarked)
4. CCOC(=O)c1c(NC(=O)c2cccnc2)sc2c1CCC(C(C)(C)C)C2 (centres unmarked)
5. Cc1ccc(-n2c(C3CCCC3)nc3c(c(=O)c4ccccc4n3C)c2=O)cc1
6. Cc1ccc(-n2c(CC(C)C)nc3c(c(=O)c4ccccc4n3C)c2=O)cc1

Data returned:
0.73
3.35
1.86
0.65
3.11
1.32

// for each compound below, give its D5 Beta-Arrestin: DA + 50 μM PAM, Fold Change EC50
1. CC(C)Cc1nc2c(c(=O)c3ccccc3n2C)c(=O)n1-c1ccc(Cl)cc1
2. Cn1c2ccccc2c(=O)c2c(=O)[nH]c(C3CCCC3)nc21
3. Cn1c2ccccc2c(=O)c2c(=O)n(-c3ccc(Cl)cc3)c(CC3CCCCC3)nc21 [Compound 17]
4. CC(C)(C)C1CCc2c(sc(NC(=O)c3ccncc3)c2C(N)=O)C1 (centres unmarked)

Data returned:
0.81
0.66
1.09
1.25

====

Would you mind telling me the reported DA + 50 μM PAM, Fold Change EC50 of each entry?
# System: D5 (Homo sapiens)
# Measurement description: D5R β-arrestin recruitment assay (DiscoverX PathHunter, CHO cells)
# Format: cell-based
# Set-up: host or cells: CHO-K1
# Test conditions: fold change of DA EC50 with 50 μM PAM; Dopamine D5-β-arrestin Assay
Numbers only.

Some solved entries appear below for comparison.
Compound	DA + 50 μM PAM, Fold Change EC50
Cc1ccccc1NC(=O)c1c(NC(=O)c2ccncc2)sc2c1CCC(C)C2 (stereo not shown)	0.83
CC(C)(C)C1CCc2c(sc(NC(=O)c3ccco3)c2C(N)=O)C1 (stereo not shown)	1.14
CC1CCc2c(sc(NC(=O)c3ccc(O)cc3)c2C(N)=O)C1 (stereo not shown)	0.87

Data request: Given the compound NC(=O)c1c(NC(=O)c2cccnc2)sc2c1CCCC2 , what is its reported DA + 50 μM PAM, Fold Change EC50?
Data returned: 1.03

====

Would you mind telling me the reported D1 cAMP: DA + 50 μM PAM, Fold Chg EC50 of each entry?
# System: human D1R (Homo sapiens)
# Measurement description: D1 cAMP accumulation assay (D1R-HEK293 cells, DiscoverX HitHunter)
# Test conditions: fold change of dopamine EC50, 50 μM compound
One number for each entry.

Molecule	System	Number
CC1CCc2c(sc(NC(=O)c3ccc4ccccc4n3)c2C(N)=O)C1 (stereo not drawn) [Compound 31]	human D1R (Homo sapiens)	1.20
CN1CCc2c(sc(NC(=O)c3ccncc3)c2C#N)C1 [Compound 34]	human D1R (Homo sapiens)	1.30
Cn1c2ccccc2c(=O)c2c(=O)n(-c3ccccc3)c(C3CCCCC3)nc21 [Compound 1]	human D1R (Homo sapiens)	1.83

// for each molecule below, give its D1 cAMP: DA + 50 μM PAM, Fold Chg EC50
1. NC(=O)c1c(NC(=O)c2ccccn2)sc2c1CCCC2 [Compound 36]
2. CCOC(=O)c1c(NC(=O)c2cccnc2)sc2c1CCC(C(C)(C)C)C2 (stereo not drawn) [Compound 39]

Data returned:
1. 2.50
2. 1.04

// for each molecule below, give its D1 cAMP: DA + 50 μM PAM, Fold Chg EC50
1. CC(C)(C)C1CCc2c(sc(NC(=O)c3ccc4ccccc4n3)c2C(N)=O)C1 (stereo not drawn) [Compound 32]
2. CC(C)(C)C1CCc2c(sc(NC(=O)c3ccccn3)c2C(N)=O)C1 (stereo not drawn) [Compound 30]
3. NC(=O)c1c(NC(=O)c2cccnc2)sc2c1CCC(c1ccccc1)C2 (stereo not drawn) [Compound 40]
4. CC1CCc2c(sc(NC(=O)c3ccncc3)c2C(N)=O)C1 (stereo not drawn) [Compound 33]

Data returned:
1.28
1.31
0.7
1.53

====

# System: human D1R (Homo sapiens, UniProt P21728)
# Sequence (P21728 whole entry): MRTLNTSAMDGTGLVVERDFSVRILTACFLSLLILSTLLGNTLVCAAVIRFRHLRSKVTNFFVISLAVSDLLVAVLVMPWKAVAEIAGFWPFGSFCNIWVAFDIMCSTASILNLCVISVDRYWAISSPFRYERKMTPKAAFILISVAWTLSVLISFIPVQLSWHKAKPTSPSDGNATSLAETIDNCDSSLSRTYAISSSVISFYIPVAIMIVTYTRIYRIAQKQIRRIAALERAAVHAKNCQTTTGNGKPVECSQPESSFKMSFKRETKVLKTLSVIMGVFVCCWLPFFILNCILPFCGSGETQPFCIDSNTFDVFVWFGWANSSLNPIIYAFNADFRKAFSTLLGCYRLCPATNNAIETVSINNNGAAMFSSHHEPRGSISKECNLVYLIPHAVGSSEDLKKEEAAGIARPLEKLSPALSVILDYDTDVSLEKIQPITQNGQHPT
# Measurement description: D1R β-arrestin recruitment assay (DiscoverX PathHunter, CHO-K1 cells)
# Test conditions: fold change of dopamine EC50, 50 μM compound
Property name: D1 Beta-Arrestin: DA + 50 μM PAM, Fold Chg EC50

Some solved entries appear below for comparison.
Molecule	Result
CC(C)(C)C1CCc2c(sc(NC(=O)c3cncc(Br)c3)c2C(N)=O)C1 (stereo not shown) [Compound 29]	1.05
COc1ccc(-n2c(CC3CCCCC3)nc3c(c(=O)c4ccccc4n3C)c2=O)cc1 [Compound 16]	0.45
NC(=O)c1c(NC(=O)c2cccnc2)sc2c1CCC(c1ccccc1)C2 (stereo not shown) [Compound 40]	1.97
CC(C)(C)C1CCc2c(sc(NC(=O)c3ccncc3)c2C(N)=O)C1 (stereo not shown) [Compound 28]	8.29
CC1CCc2c(sc(NC(=O)c3cccnc3)c2C(N)=O)C1 (stereo not shown) [Compound 35]	0.97

// for each molecule below, give its D1 Beta-Arrestin: DA + 50 μM PAM, Fold Chg EC50
1. CC(C)(C)C1CCc2c(sc(NC(=O)c3cccnc3)c2C(N)=O)C1 (stereo not shown) [Compound 38]
2. CC1CCc2c(sc(NC(=O)c3ccccn3)c2C(N)=O)C1 (stereo not shown) [Compound 37]
3. CC(C)(C)C1CCc2c(sc(NC(=O)c3ccccn3)c2C(N)=O)C1 (stereo not shown) [Compound 30]
4. CC1CCc2c(sc(NC(=O)c3ccncc3)c2C(N)=O)C1 (stereo not shown) [Compound 33]

Data returned:
10.35
1.05
1.05
0.97

Data request: Lab note: need D1 Beta-Arrestin: DA + 50 μM PAM, Fold Chg EC50 for Cn1c2ccccc2c(=O)c2c(=O)n(-c3ccccc3)c(C3CCCCC3)nc21 [Compound 1] on human D1R (Homo sapiens, UniProt P21728), anyone have it?
Data returned: 4.64

====

# System: human D1R (Homo sapiens, UniProt P21728)
# Measurement description: D1R β-arrestin recruitment assay (DiscoverX PathHunter, CHO-K1 cells)
# Test conditions: Table 5; 50 μM compound
Property name: Dopamine D1-β-arrestin Assay: DA + 50 μM PAM, Fold Change EC50

Some solved entries appear below for comparison.
CC(C)c1nc2c(c(=O)c3ccccc3n2C)c(=O)n1-c1ccc(F)cc1 1.69
COc1ccc2c(=O)c3c(=O)n(-c4ccccc4)c(-c4ccc(C)cc4)nc3oc2c1 0.85
Cn1c2ccccc2c(=O)c2c(=O)n(C3CCCCCC3)c(C3CCCCC3)nc21 3.85

// for each molecule below, give its Dopamine D1-β-arrestin Assay: DA + 50 μM PAM, Fold Change EC50
1. CCCCCc1nc2c(c(=O)c3ccccc3n2C)c(=O)n1C1CCCCCC1
2. CCCc1nc2c(c(=O)c3ccccc3n2C)c(=O)n1C1CCCCCC1
3. CCCc1nc2c(c(=O)c3ccccc3n2C)c(=O)n1-c1cc(C)cc(C)c1
4. Cn1c2ccccc2c(=O)c2c(=O)n(-c3ccccc3)c(C3CCCCC3)nc21
5. CC(C)Cn1c(-c2ccco2)nc2c(c(=O)c3ccccc3n2C)c1=O
6. Cn1c2ccccc2c(=O)c2c(=O)n(Cc3ccccc3)c(-c3ccc(F)cc3)nc21
7. Cn1c2ccccc2c(=O)c2c(=O)n(-c3ccccc3)c(-c3ccc(C(C)(C)C)cc3)nc21

Data returned:
1: 1.12; 2: 3.47; 3: 14.1; 4: 4.64; 5: 2.06; 6: 1.32; 7: 1.33
